test: Evaluation of dissolution stability (content change on storage in dissolved state); format: physicochemical; settings: 1 mg/1 ml dissolved state, 40° C. and RH 75%, day 1
Primed or numbered codes have the meaning given here. Where no end group is shown, it is not given here. [ ]: non-standard residue; d: D form. The star is where a group is joined. Asu′ = aspartimide (aminosuccinimide); Hyp = O=C(O)[C@@H]1C[C@@H](O)CN1; OiPr = CC(C)O*
Hi, to clarify the labels: True covers Day 1 content (%) from 90% upward, False covers anything below 90%.

Hyp-Gly-Gln-Asp (isopropyl ester)-Gly-Leu (isopropyl ester) [Example 112] : True

Check if Day 1 content (%) >= 90% (inclusive). Item: Hyp-Gly-Gln-Glu-Leu-Leu ([Hyp]GQELL) [Example 88]
True

Check if Day 1 content (%) >= 90% (inclusive). Item: Hyp-Gly-Gln-Leu-Val ([Hyp]GQLV) [Example 95]
True

API: above_or_equal(metric=Day 1 content (%), cutoff=90%) for item Hyp-Gly-Gln-Asp-Gly-D Leu-Ala ([Hyp]GQDG[dL]A) [Example 65]
True

Given Hyp-Gly-Gln-Asp (isopropyl ester)-Gly-Leu ([Hyp]GQD(OiPr)GL) [Example 116] , state whether its Day 1 content (%) is at least 90%.
False

Check this substance for Day 1 content (%) at or above 90%: Hyp-Gly-Gln-Asu-Gly ([Hyp]GQ[Asu′]G) [Example 100]
True

Check the entry Hyp-Gly-Gln-Asu-Gly-Leu ([Hyp]GQ[Asu′]GL) [Example 101] : does Day 1 content (%) equal or exceed 90%?
False

###

Reported Day 1 content (%) values follow for various substances
experiment: Evaluation of dissolution stability (content change on storage in dissolved state); format: physicochemical; conditions: 1 mg/1 ml dissolved state, 40° C. and RH 75%, day 1
Where no end group is shown, it is not given here. [ ]: non-standard residue; d: D form. Hyp = O=C(O)[C@@H]1C[C@@H](O)CN1
Use % as the unit, but write only the number.

Item under review: Hyp-Gly-Gln-His-Gly-Leu ([Hyp]GQHGL) [Example 82] . Reported Day 1 content (%)?
92.51

For the substance Hyp-Gly-Leu-Ala-Gly-Pro-Lys ([Hyp]GLAGPK) [Example 27] , what Day 1 content (%) is on record?
98.16

###

assay: Evaluation of dissolution stability (content change on storage in dissolved state); assay type: physicochemical; details: 1 mg/1 ml dissolved state, 40° C. and RH 75%, day 1
Where no end group is shown, it is not given here. [ ]: non-standard residue; d: D form. Hyp = O=C(O)[C@@H]1C[C@@H](O)CN1
PROPERTY LABEL: Day 1 content (%)
Form entry: value (%) — number only.

Solved cases below.
Hyp-Gly-Gln-Ala-Gly ([Hyp]GQAG) [Example 13] : 98.39
[Hyp]GQDVLA [Example 37] : 98.64

Name the reported Day 1 content (%) value associated with the substance Hyp-Gly-Gln-Asp (isopropyl ester)-Gly (isopropyl ester) [Example 110]
85.18

###

assay: Evaluation of dissolution stability (content change on storage in dissolved state); type: physicochemical; settings: 1 mg/1 ml dissolved state, 40° C. and RH 75%, day 7
Primed or numbered codes have the meaning given here. Where no end group is shown, it is not given here. [ ]: non-standard residue; d: D form. Pro(cis-4-F) = O=C(O)[C@@H]1C[C@H](F)CN1; Pro(4,4-Me2) = CC1(C)CN[C@H](C(=O)O)C1; Asu′ = aspartimide (aminosuccinimide); Hyp = O=C(O)[C@@H]1C[C@@H](O)CN1
PROPERTY LABEL: Day 7 content (%)
Write down the numeric answer in % and omit the unit.

Use these answered entries as a reference point.
4,4-dimethyl Pro-Gly-Gln-Asp-Gly ([Pro(4,4-Me2)]GQDG) [Example 55] : 81.00
Hyp-Gly-Gln-Asu-Gly-Leu-Ala ([Hyp]GQ[Asu′]GLA) [Example 102] : 81.09
Hyp-Gly-Gln-Asp-Gly-Val ([Hyp]GQDGV) [Example 71] : 82.04
Hyp-Gly-Gln-Asu-Gly ([Hyp]GQ[Asu′]G) [Example 100] : 74.12
Hyp-Gly-Gln-Leu-Gly-Leu-Ala-Gly ([Hyp]GQLGLAG) [Example 17] : 96.27
Hyp-Gly-Gln-Asu-Gly-Leu-Ala-Gly ([Hyp]GQ[Asu′]GLAG) [Example 103] : 94.88
[Hyp]GQDVLA [Example 37] : 93.55
Hyp-Gly-Leu-Ala-Gly-Pro-Lys ([Hyp]GLAGPK) [Example 27] : 98.16

Please find the next substance below.
Can you share its Day 7 content (%)? I mean this substance: cis-4F-Pro-Gly-Gln-Asp-Gly-Leu ([Pro(cis-4-F)]GQDGL) [Example 46]
62.32
